The origin of these recorded values is patent EP1501797B1.

# protocol-summary: Human primary Th2 cells, proliferation (viability, MTS assay)
# Assay type: cell-based
# cond: human, th2 cells; 0.01 µM; MTS; read-out: Proliferation (% control) mean
observed-property: viability at 0.01 µM (%)
The response must be a number in % with no trailing unit.

For the molecule `O=C(O)c1[nH]c2ccccc2c1Nc1ccncc1` , what viability at 0.01 µM is on record?
89.5
